Molecular target: Full length p53
Assay: MST; FIG. 3B
Details: chains peptide; modification not given
measure: Kd (µM)
Report only the number, with the unit µM understood.

The binder identified as RRHSTPHPD [pCAP250] registered its Kd at 30
